Tested on: C. neoformans ATCC 36556
Assay Method Text: C. neoformans growth inhibition (CLSI M27-A3 broth microdilution)
Assay type: cell-based
Test Context: Cryptococcus neoformans, ATCC36556, 72 h, 50% inhibition, 72 h, triplicate values printed singly; read-out: ATCC36556 MIC-2
Assay Endpoint: MIC (µg/mL)

[
  {
    "Molecule": "COC(=O)[C@@H]1C[C@@H]2c3cc(F)cc4c3[C@H](C[C@H]2N(C)C1)CN4C(C)=O [NGx06]",
    "MIC [µg/mL]": 50
  }
]

a: COC(=O)[C@@H]1C[C@@H]2c3cc(N)cc4c3[C@H](C[C@H]2N(C)C1)CN4C(C)=O [NGx10]
b: COC(=O)C1CC2c3cccc4c3C(CC2N(C)C1)CN4C=O (centres unmarked) [NGx17]
c: CN1C[C@H](C(=O)Nc2ccccc2)C[C@@H]2c3c(O)ccc4c3[C@H](C[C@H]21)CN4C(=O)OC(C)(C)C [NGx07]
Highest MIC first, then in falling order down to the smallest. Please, when replying, give the labels in the order that was requested. b, a, c
(b: 50 µg/mL, a: 25 µg/mL, c: 6.3 µg/mL)
